The reader will find reported half-life values listed item by item below.
Experiment: Elimination half life in CD-1 mouse at 3 mg/kg, po or 1 mg/kg, iv measured up to 24 hrs by LC-MS/MS analysis
Format: ADME, organism-based
Conditions: in vivo, read-out: beta t1/2 (converted)
Number in h, nothing else.

Ask | Which half-life value is on record for "Cc1nc(-c2nnn(C)c2COC(=O)N(C)CC2CCC2)ccc1O[C@H]1CCC[C@H](C(=O)O)C1" ?
Reply | 1.5

Ask | Which half-life value is on record for "CCCN(C)C(=O)OCc1c(-c2ccc(O[C@H]3CCC[C@H](C(=O)O)C3)c(C)n2)nnn1C" ?
Reply | 2.5

----------
Target: hERG (Homo sapiens, UniProt Q12809)
Sequence (Q12809 whole entry): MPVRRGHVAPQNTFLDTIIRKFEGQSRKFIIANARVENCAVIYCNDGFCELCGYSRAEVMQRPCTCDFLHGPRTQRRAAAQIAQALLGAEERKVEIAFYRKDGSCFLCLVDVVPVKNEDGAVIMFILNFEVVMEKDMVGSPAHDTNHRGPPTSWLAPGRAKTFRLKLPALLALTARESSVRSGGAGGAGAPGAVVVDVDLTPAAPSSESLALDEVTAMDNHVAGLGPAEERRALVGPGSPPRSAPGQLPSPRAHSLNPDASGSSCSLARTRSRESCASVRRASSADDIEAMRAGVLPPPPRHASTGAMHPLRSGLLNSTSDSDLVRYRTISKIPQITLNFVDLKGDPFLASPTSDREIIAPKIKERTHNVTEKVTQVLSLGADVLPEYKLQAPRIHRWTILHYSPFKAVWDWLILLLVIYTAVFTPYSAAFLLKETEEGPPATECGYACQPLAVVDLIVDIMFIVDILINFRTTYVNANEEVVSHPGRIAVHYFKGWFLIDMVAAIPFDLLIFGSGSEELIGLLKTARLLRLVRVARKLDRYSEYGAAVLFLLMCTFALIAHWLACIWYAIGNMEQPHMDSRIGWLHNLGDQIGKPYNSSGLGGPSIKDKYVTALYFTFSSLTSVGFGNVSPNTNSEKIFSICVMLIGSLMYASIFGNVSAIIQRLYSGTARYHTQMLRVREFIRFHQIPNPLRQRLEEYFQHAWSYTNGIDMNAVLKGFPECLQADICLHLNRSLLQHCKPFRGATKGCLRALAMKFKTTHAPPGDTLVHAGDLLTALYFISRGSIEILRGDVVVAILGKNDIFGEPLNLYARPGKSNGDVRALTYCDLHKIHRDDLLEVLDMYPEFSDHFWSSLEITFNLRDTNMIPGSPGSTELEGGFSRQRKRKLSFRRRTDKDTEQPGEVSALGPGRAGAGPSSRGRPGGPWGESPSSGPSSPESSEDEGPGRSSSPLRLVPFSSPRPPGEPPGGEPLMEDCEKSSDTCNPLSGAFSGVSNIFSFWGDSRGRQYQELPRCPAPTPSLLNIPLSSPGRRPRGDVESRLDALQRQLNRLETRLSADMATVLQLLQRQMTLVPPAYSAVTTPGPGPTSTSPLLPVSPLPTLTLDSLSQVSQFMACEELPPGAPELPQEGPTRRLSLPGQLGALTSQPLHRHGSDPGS
Experiment: Inhibition of hERG at 30 uM by electrophysiological assay relative to control
PROPERTY LABEL: inhibition at 30 µM (%)
Number in %, nothing else.

Ask | Find inhibition at 30 µM (hERG (Homo sapiens, UniProt Q12809)) for the entry CCCN(C)C(=O)OCc1c(-c2ccc(O[C@H]3CCC[C@H](C(=O)O)C3)c(C)n2)nnn1C [ADMILPARANT]
Reply | 35

----------
Assay: Aqueous solubility of compound at pH 7.4
Type: physicochemical
PROPERTY LABEL: solubility (µg/mL)
Number in µg/mL, nothing else.

Cc1nc(-c2nnn(C)c2COC(=O)N(C)CC2CCC2)ccc1O[C@H]1CCC[C@H](C(=O)O)C1; 705

Let us examine a further case.
Ask | Which solubility value is on record for "Cc1noc(-c2ccc(-c3ccc(C4(C(=O)O)CC4)cc3)cc2)c1NC(=O)O[C@H](C)c1ccccc1" ?
Reply | 11

----------
Molecular target: Cytochrome P450 2C8 (Homo sapiens)
Sequence (P10632 whole entry): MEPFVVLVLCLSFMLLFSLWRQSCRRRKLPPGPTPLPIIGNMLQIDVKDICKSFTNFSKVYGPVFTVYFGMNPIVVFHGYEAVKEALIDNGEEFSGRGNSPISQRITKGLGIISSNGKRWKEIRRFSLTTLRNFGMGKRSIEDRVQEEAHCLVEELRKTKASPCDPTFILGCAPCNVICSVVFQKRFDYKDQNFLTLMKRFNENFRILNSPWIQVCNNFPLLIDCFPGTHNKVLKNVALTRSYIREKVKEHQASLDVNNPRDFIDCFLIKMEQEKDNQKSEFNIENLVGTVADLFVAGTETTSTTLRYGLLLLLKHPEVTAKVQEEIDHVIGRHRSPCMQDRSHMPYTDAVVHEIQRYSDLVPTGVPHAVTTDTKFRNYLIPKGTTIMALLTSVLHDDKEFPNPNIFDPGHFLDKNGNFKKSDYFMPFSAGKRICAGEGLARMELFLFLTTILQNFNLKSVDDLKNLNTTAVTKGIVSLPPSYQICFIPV
PROPERTY LABEL: pIC50
Value format note: pIC50 is -log10 of concentration (mol/L); just state the number.

Ask | Which pIC50 value is on record for "Cc1noc(-c2ccc(-c3ccc(C4(C(=O)O)CC4)cc3)cc2)c1NC(=O)O[C@H](C)c1ccccc1" ?
Reply | 5.46

----------
The reader will find reported clearance values listed item by item below.
Test: Plasma clearance in Cynomolgus monkey at 3 mg/kg, po or 1 mg/kg, iv measured up to 24 hrs by LC-MS/MS analysis
Assay type: ADME, organism-based, Macaca fascicularis
Number in mL/min/kg, nothing else.

CCCN(C)C(=O)OCc1c(-c2ccc(O[C@H]3CCC[C@H](C(=O)O)C3)c(C)n2)nnn1C [ADMILPARANT]; 2

Let us examine a further case.
Ask | Which clearance value is on record for "Cc1nc(-c2nnn(C)c2COC(=O)N(C)CC2CCC2)ccc1O[C@H]1CCC[C@H](C(=O)O)C1" ?
Reply | 17

----------
Molecular target: ATP-binding cassette sub-family C member 4 (Homo sapiens, UniProt O15439)
Sequence (O15439 whole entry): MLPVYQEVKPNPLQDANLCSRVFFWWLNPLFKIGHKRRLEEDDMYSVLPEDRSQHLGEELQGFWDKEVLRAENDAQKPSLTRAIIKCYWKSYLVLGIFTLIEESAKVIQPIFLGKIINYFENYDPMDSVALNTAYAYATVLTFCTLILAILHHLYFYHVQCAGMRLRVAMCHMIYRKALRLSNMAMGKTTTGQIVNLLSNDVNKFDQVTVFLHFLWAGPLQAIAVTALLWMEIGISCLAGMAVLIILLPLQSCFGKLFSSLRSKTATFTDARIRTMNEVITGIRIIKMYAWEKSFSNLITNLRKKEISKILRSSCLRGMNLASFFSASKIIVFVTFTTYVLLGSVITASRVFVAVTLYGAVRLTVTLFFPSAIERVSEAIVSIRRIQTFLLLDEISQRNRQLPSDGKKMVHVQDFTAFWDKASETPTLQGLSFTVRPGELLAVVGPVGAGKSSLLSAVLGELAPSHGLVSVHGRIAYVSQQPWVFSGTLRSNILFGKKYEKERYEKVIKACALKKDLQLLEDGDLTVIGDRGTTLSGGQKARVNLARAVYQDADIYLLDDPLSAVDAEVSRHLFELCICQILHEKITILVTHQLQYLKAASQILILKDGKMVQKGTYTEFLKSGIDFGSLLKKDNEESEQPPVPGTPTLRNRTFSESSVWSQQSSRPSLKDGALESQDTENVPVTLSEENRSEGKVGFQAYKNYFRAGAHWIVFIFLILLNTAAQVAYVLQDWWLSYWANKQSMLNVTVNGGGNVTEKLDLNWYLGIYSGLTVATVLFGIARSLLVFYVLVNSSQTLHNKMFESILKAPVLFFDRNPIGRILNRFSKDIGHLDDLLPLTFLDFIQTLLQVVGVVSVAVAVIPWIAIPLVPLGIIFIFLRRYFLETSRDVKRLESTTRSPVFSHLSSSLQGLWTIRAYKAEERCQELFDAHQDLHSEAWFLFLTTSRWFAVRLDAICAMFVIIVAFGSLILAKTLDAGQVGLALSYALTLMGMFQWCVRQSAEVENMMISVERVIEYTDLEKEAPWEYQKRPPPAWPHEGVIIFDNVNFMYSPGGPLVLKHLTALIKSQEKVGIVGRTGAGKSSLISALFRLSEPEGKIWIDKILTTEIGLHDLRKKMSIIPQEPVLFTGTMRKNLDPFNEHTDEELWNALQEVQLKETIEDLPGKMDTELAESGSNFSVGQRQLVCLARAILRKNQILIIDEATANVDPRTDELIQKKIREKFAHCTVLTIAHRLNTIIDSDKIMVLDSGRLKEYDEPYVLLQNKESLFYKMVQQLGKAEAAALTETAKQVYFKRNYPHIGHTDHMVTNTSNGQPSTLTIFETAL
The reader will find reported pIC50 values listed item by item below.
Value format note: pIC50 is -log10 of concentration (mol/L); just state the number.

Worked cases, pIC50 given:
Cc1nc(-c2nnn(C)c2COC(=O)N(C)CC2CCC2)ccc1O[C@H]1CCC[C@H](C(=O)O)C1; 4.80
CCCN(C)C(=O)OCc1c(-c2ccc(O[C@H]3CCC[C@H](C(=O)O)C3)c(C)n2)nnn1C; 4.33

Let us examine a further case.
Ask | Which pIC50 value is on record for "Cc1noc(-c2ccc(-c3ccc(C4(C(=O)O)CC4)cc3)cc2)c1NC(=O)O[C@H](C)c1ccccc1" ?
Reply | 5.21

----------
Target: Cytochrome P450 2C19 (Homo sapiens)
Sequence (P33261 whole entry): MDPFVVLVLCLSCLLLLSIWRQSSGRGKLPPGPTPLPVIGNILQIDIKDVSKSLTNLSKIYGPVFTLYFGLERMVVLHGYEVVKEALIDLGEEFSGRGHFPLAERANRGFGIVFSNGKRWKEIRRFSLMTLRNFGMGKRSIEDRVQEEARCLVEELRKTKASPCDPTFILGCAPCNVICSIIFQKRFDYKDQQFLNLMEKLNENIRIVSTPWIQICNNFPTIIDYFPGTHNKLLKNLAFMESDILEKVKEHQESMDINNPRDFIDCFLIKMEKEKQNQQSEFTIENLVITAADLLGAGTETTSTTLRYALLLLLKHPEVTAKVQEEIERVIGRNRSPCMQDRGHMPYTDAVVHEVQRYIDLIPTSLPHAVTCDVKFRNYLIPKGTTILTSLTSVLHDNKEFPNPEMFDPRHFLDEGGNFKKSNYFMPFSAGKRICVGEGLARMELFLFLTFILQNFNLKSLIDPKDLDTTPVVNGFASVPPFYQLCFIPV
pIC50: −log10 of the molar value.
The reader will find reported pIC50 values listed item by item below.

Cc1noc(-c2ccc(-c3ccc(C4(C(=O)O)CC4)cc3)cc2)c1NC(=O)O[C@H](C)c1ccccc1; < 4.30

Ask | Which pIC50 value is on record for "Cc1nc(-c2nnn(C)c2COC(=O)N(C)CC2CCC2)ccc1O[C@H]1CCC[C@H](C(=O)O)C1" ?
Reply | < 4.40

----------
The reader will find reported logD values listed item by item below.
Test: Lipophilicity, log D of compound at pH 6.5 by shake-flask method
Type: physicochemical
Conditions: buffer

Worked cases, logD given:
Cc1nc(-c2nnn(C)c2COC(=O)N(C)CC2CCC2)ccc1O[C@H]1CCC[C@H](C(=O)O)C1; 2.3
Cc1noc(-c2ccc(-c3ccc(C4(C(=O)O)CC4)cc3)cc2)c1NC(=O)O[C@H](C)c1ccccc1; 3.6

Ask | Which logD value is on record for "CCCN(C)C(=O)OCc1c(-c2ccc(O[C@H]3CCC[C@H](C(=O)O)C3)c(C)n2)nnn1C" ?
Reply | 1.95

----------
Molecular target: UniProt P08684
PROPERTY LABEL: IC50

Ask | Find IC50 (UniProt P08684) for the entry "Cc1noc(-c2ccc(-c3ccc(C4(C(=O)O)CC4)cc3)cc2)c1NC(=O)O[C@H](C)c1ccccc1"
Reply | > 50 µM

----------
Biological target: CYP3A4 (Homo sapiens)
Sequence (P08684 whole entry): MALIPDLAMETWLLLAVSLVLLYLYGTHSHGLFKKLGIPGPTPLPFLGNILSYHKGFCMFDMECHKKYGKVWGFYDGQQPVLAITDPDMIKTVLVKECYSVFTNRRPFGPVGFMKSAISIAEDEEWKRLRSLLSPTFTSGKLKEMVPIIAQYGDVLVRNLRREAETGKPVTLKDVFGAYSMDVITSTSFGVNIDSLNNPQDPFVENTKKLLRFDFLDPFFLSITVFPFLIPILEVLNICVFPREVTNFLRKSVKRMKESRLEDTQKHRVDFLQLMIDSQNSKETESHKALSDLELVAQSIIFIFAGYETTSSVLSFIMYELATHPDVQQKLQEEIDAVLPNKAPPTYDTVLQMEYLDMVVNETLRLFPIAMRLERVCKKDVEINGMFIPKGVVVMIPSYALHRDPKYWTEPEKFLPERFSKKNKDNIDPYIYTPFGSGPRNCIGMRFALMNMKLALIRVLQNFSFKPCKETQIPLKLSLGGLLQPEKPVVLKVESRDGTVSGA
Assay: Induction of CYP3A4 in human hepatocytes
Assay type: ADME, cell-based, Hepatocyte
PROPERTY LABEL: IC50

Worked cases, IC50 given:
Cc1noc(-c2ccc(-c3ccc(C4(C(=O)O)CC4)cc3)cc2)c1NC(=O)O[C@H](C)c1ccccc1; > 50 µM
Cc1nc(-c2nnn(C)c2COC(=O)N(C)CC2CCC2)ccc1O[C@H]1CCC[C@H](C(=O)O)C1; > 50 µM

Let us examine a further case.
Ask | Which IC50 value is on record for "CCCN(C)C(=O)OCc1c(-c2ccc(O[C@H]3CCC[C@H](C(=O)O)C3)c(C)n2)nnn1C" ?
Reply | > 50 µM

----------
Test: Aqueous solubility of compound at pH 7.5
Type: physicochemical
PROPERTY LABEL: solubility (µg/mL)
Number in µg/mL, nothing else.

Ask | Which solubility value is on record for "CCCN(C)C(=O)OCc1c(-c2ccc(O[C@H]3CCC[C@H](C(=O)O)C3)c(C)n2)nnn1C" ?
Reply | 6210

----------
Assay: Half life in rat liver microsomes at 10 uM measured after 120 mins
Type: ADME, Microsome
The reader will find reported half-life at 10 µM values listed item by item below.

Worked cases, half-life at 10 µM given:
CCCN(C)C(=O)OCc1c(-c2ccc(O[C@H]3CCC[C@H](C(=O)O)C3)c(C)n2)nnn1C [ADMILPARANT]; > 2 h
Cc1noc(-c2ccc(-c3ccc(C4(C(=O)O)CC4)cc3)cc2)c1NC(=O)O[C@H](C)c1ccccc1 [BMS-986020]; 1.27 h

Let us examine a further case.
Ask | Which half-life at 10 µM value is on record for "Cc1nc(-c2nnn(C)c2COC(=O)N(C)CC2CCC2)ccc1O[C@H]1CCC[C@H](C(=O)O)C1" ?
Reply | > 2 h
